B1: PTPRD (parent)
chain: PVVSMDLDPQPITDEEEGLIWVVG

# Variants of: B1
# TEST: protein stability index of a GFP-peptide fusion (GPS, HEK-293T) (PSI 1-6); higher = more stable;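 note: lentivirally expressed fusions sorted by FACS into six bins by GFP to DsRed ratio, PSI derived from sequencing read proportions per bin multiplied by bin number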
# MEASUREMENT_CONDITIONS: c terminus: a fixed tail appended
Classification field: YES = protein stability index at or over 3; NO = protein stability index under 3.

As a guide, the following entries are already answered.
YVVSMDLDPQPITDEEEGLIWVVG ... NO
PVVSMDLDPQPITDPEEGLIWVVG ... YES
PVVSGDLDPQPITDEEEGLIWVVG ... YES
PVVSMDLDPQPIPDEEEGLIWVVG ... YES
PVVSMDLDPQPITNEEEGLIWVVG ... YES
PVVSMDLDPLPITDEEEGLIWVVG ... YES
PCVSMDLDPQPITDEEEGLIWVVG ... YES
FVVSMDLDPQPITDEEEGLIWVVG ... NO

Field: next variant
Check if protein stability index >= 3 (inclusive). Item: `PVVSMDLDPQPITDEEEGLIWVVW` NO
